All values here come from patent US20240116985A1.

protocol-notes: CHI Log D procedure
Assay type: physicochemical
assay-conditions: pH 7.4
# CHI Log D per entry
Output spec: single numeric token, no unit.

Here is how some compounds turned out for CHI Log D.
[
  {
    "compound": "CC(=O)N1CCC[C@]12CC=CCCCC1(CCCC=CCCCCCC[C@@](C)(C(=O)N[C@@H](Cc3ccccc3)C(=O)N[C@@](C)(Cc3c[nH]c4ccccc34)C(=O)N[C@@H](CCC(N)=O)C(N)=O)NC(=O)[C@H](C(C)C)NC(=O)[C@H](Cc3ccccc3)NC(=O)[C@H](C)NC(=O)[C@H](C)NC(=O)[C@H](CCC(=O)O)NC(=O)[C@H](CC(=O)O)NC1=O)NC(=O)[C@H](C)NC(=O)[C@H](CC(=O)O)NC2=O (some centres unmarked) [I-137]",
    "CHI Log D": 2.174
  },
  {
    "compound": "CC(=O)N1CCC[C@]12CC=CCCCC1(CCCC=CCCCCCC[C@@](C)(C(=O)N[C@@H](Cc3ccccc3)C(=O)N[C@@H](Cc3csc4ccccc34)C(N)=O)NC(=O)[C@H](CC(N)=O)NC(=O)[C@H](Cc3ccccc3)NC(=O)[C@H](C)NC(=O)[C@H](C)NC(=O)[C@H](CCC(=O)O)NC(=O)[C@H](CC(=O)O)NC1=O)NC(=O)[C@H](CC(C)C)NC(=O)[C@H](CC(=O)O)NC2=O (some centres unmarked) [I-624]",
    "CHI Log D": 2.598
  },
  {
    "compound": "CC(=O)N1CCC[C@]12CC=CCCCC1(CCCC=CCOC(=O)N(C)CCC[C@@](C)(C(=O)N[C@@H](Cc3ccsc3)C(=O)N[C@@H](Cc3csc4ccccc34)C(=O)N[C@@H](Cc3c[nH]cn3)C(N)=O)NC(=O)[C@H](CC(N)=O)NC(=O)[C@H](Cc3ccccc3)NC(=O)[C@H](C)NC(=O)[C@H](C)NC(=O)[C@H](CC(=O)O)NC(=O)[C@H](CC(=O)O)NC1=O)NC(=O)[C@H](CC(C)(C)C)NC(=O)[C@H](CC(=O)O)NC2=O (some centres unmarked) [I-774]",
    "CHI Log D": 1.928
  },
  {
    "compound": "CC(=O)N[C@@H](Cc1ccccc1)C(=O)N[C@@H](CC(=O)O)C(=O)N[C@@H](C)C(=O)N[C@]1(C)CCCCCCC=CCOC(=O)N2CC[C@@](C(=O)N[C@@H](Cc3ccc(O)cc3)C(=O)N[C@@H](Cc3c[nH]c4ccccc34)C(=O)N[C@@H](CCC(N)=O)C(N)=O)(C2)NC(=O)[C@H](C(C)C)NC(=O)[C@H](Cc2ccccc2)NC(=O)[C@H](C)NC(=O)[C@H](C)NC(=O)[C@H](CC(=O)O)NC(=O)[C@H](CC(=O)O)NC1=O (single isomer, unassigned)",
    "CHI Log D": 1.019
  }
]

// CHI Log D lookup, compound = CC(=O)N1CCC[C@]12CC=CCCCC1(CCCC=CCCCOC(=O)N3CC[C@@](C(=O)N[C@@H](Cc4ccsc4)C(=O)N[C@@H](Cc4csc5ccccc45)C(=O)N[C@@H](CCC(N)=O)C(N)=O)(C3)NC(=O)[C@H](CC(N)=O)NC(=O)[C@H](Cc3ccccc3)NC(=O)[C@H](C)NC(=O)[C@H](C)NC(=O)[C@H](CC(=O)O)NC(=O)[C@H](CC(=O)O)NC1=O)NC(=O)[C@H](CC(C)C)NC(=O)[C@H](CC(=O)O)NC2=O (some centres unmarked) [I-688] , result: 1.924
